Target: T1, His6-tagged Bcl-XL (residues 1-208, N52D, N66D) (human), Q07817
T1 chain: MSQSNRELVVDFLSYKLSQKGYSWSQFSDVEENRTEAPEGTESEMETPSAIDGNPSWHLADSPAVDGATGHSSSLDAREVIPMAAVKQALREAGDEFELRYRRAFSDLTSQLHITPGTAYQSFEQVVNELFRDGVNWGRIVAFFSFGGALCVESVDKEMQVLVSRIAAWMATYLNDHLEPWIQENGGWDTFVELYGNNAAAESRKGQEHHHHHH
Assay: ITC, 25 °C
READOUT_NAME: ΔS

Reported ΔS, binder GSGTMENLSRRLKVTGDLADIMSGQT (modifications not checked) [Beclin 1 BH3D-derived peptide F123A] : ____
-38 J/K · mol

Tell me the measured ΔS of GSGTMENLSRRLKVTGDLFDIMSGQT (modifications not checked) [Beclin 1 BH3D peptide, wild type] , please.
-36.9 J/K · mol

What ΔS value was documented for this binder, GSGTMENASRRLKVTGDLFDIMSGQT (modifications not checked) [Beclin 1 BH3D-derived peptide L112A] ?
-66.3 J/K · mol

Entry under review: GSGTMENLSRRLAVTGDLFDIMSGQT (modifications not checked) [Beclin 1 BH3D-derived peptide K117A] . Reported ΔS?
-35.8 J/K · mol
